Please go through the items and note down their FC: form change (XRPD of precipitate).
assay: Equilibrium solubility in pH buffers (3.0-8.0), 20% captisol and water; format: physicochemical; conditions: pH = 3.0 buffer (50 mM HCl + KCl), 24 hrs
Where a name gives a salt, the structure may show the parent alone.

QUERY: // lookup FC: form change (XRPD of precipitate) for CC(=O)NCC1CCN(Cc2cc(Oc3ccc(N4CCN(CCC(=O)O)CC4)nc3)nc(-c3cc(Cl)cc(Cl)c3)c2)CC1 [Sulfate Type B]
RESULT: 1 (1/2/3/4/5: new Form 1/2/3/4/5)

QUERY: Could you share which FC: form change (XRPD of precipitate) value was measured for CC(=O)NCC1CCN(Cc2cc(Oc3ccc(N4CCN(CCC(=O)O)CC4)nc3)nc(-c3cc(Cl)cc(Cl)c3)c2)CC1 [HCl salt Type F] ?
RESULT: 5 (1/2/3/4/5: new Form 1/2/3/4/5)

QUERY: Reported FC: form change (XRPD of precipitate) for CC(=O)NCC1CCN(Cc2cc(Oc3ccc(N4CCN(CCC(=O)O)CC4)nc3)nc(-c3cc(Cl)cc(Cl)c3)c2)CC1 [Fumarate Type A] : what is it?
RESULT: 5 (1/2/3/4/5: new Form 1/2/3/4/5)
